Tested on: U2OS
Experiment: Incucyte cell viability with U2OS; also: unitless GR value; below 1 slowed growth and below 0 cell loss
Type: toxicity, cell-based
Conditions: human, 12 h, 10 µM, compound concentration 10 uM, replicate number 2
Measured Growth Rate by item
Reply with the value as a number alone.

COCc1nc2cnc3cc(-c4c(C)noc4C)c(OC[C@H]4CCNC4)cc3c2n1[C@H](C)c1ccccc1 [GSK778]    0.73
CC(=O)N1CCC(c2ccc(C(=O)NC(=N)N)cc2C(F)(F)F)CC1 [BI 9627]    0.96
Cc1ccc(-n2nc(C(C)(C)C)cc2NC(=O)Nc2ccc(OCCN3CCOCC3)c3ccccc23)cc1 [DORAMAPIMOD]    0.9
C=CC(=O)Nc1cc(-c2nn(C3CCC(N4CCN(C(C)=O)CC4)CC3)c3ncnc(N)c23)ccc1Oc1ccccc1 (centres undefined)    -0.57

Item C[C@H](CCC(=O)O)[C@H]1CC[C@H]2[C@@H]3[C@H](O)C[C@@H]4C[C@H](O)CC[C@]4(C)[C@H]3C[C@H](O)[C@]12C [CHOLIC ACID] with U2OS - Growth Rate? 0.92

Item CCc1cnn2c(NCc3ccc[n+]([O-])c3)cc(N3CCCCC3CCO)nc12 (centres undefined) with U2OS - Growth Rate? 0.11

Item O=C(Nc1ccc(Oc2ccc(Cl)cc2)c(Cl)c1)c1cc(I)cc(I)c1O [RAFOXANIDE] with U2OS - Growth Rate? 0.74

Item "Cc1cc(O)c(-c2ccc([C@@H](C)CN(C)C)cc2)c2c1[nH]c(=O)c1sccc12" with U2OS - Growth Rate? 0.43

Item "CCN(c1ccccc1)c1cc(NC)[n+](C)c(C)n1.[Cl-]" with U2OS - Growth Rate? 0.84

Item CC(=O)N1CCN(c2ccc(OCC3COC(Cn4ccnc4)(c4ccc(Cl)cc4Cl)O3)cc2)CC1 (centres undefined) [KETOCONAZOLE] with U2OS - Growth Rate? 0.63

Item CN(C)CCCN1c2ccccc2Sc2ccc(Cl)cc21.Cl [CHLORPROMAZINE HYDROCHLORIDE] with U2OS - Growth Rate? 0.12

* * *

Test system: Fibroblast
Test: Incucyte cell viability with human fibroblast; also: unitless GR value; below 1 slowed growth and below 0 cell loss
Assay type: toxicity, cell-based
Settings: 12 h, 10 µM, compound concentration 10 uM, replicate number 2
Decision: Growth Rate >= 0.8 yields Met, all other cases yield Not met.

Cn1c(C(=O)N[C@@H](CO)c2ccc(C(=O)O)cc2)cc2cc(Cl)ccc21    Not met

Please tell me: is the compound "CCOC(=O)/N=C(\N)c1ccc(OCc2cccc(COc3ccc(C(C)(C)c4ccc(OC(=O)OCC)cc4)cc3)c2)cc1" at or over 0.8 in terms of Growth Rate? Met

Please tell me: is the compound CC(C)(C)OC(=O)CN(Cc1ccc(Cl)cc1)Cc1ccc([N+](=O)[O-])s1 [GSK-4112] at or over 0.8 in terms of Growth Rate? Not met

Please tell me: is the compound "COc1ncc(-c2cc(-c3ncc(CN4C[C@@H](C)O[C@@H](C)C4)o3)c3cn[nH]c3c2)cc1NS(C)(=O)=O" at or over 0.8 in terms of Growth Rate? Not met

* * *

System: U2OS
Experiment: Incucyte cell viability with U2OS; also: unitless GR value; below 1 slowed growth and below 0 cell loss
Type: toxicity, cell-based
Settings: human, 6 h, 10 µM, compound concentration 10 uM, replicate number 2
Decision: Growth Rate >= 0.8 yields label 1, all other cases yield label 0.

Answered examples (4):
CN[C@@H](C)C(=O)N[C@H](C(=O)N1CCC[C@H]1C(=O)N[C@H]1c2ccccc2C[C@H]1OCC#CC#CCO[C@@H]1Cc2ccccc2[C@@H]1NC(=O)[C@@H]1CCCN1C(=O)[C@@H](NC(=O)[C@H](C)NC)C1CCCCC1)C1CCCCC1    label 1
O=C1CCC(N2Cc3cc(CNC(=O)C(F)(F)c4ccc(Cl)cc4)ccc3C2=O)C(=O)N1 (configuration not stated)    label 1
COc1ncc(-c2cc(-c3ncc(CN4C[C@@H](C)O[C@@H](C)C4)o3)c3cn[nH]c3c2)cc1NS(C)(=O)=O    label 0
COc1cc(N(C)c2ccnc3ccc(C(F)(F)F)cc23)cc(OC)c1OC    label 0

Please tell me: is the molecule CCCCCN1C(=O)C2(COc3cc4c(cc32)OCO4)c2ccccc21 (configuration not stated) at or over 0.8 in terms of Growth Rate? label 0

Please tell me: is the molecule "CNC(=O)c1cc(C(=O)NC2CC2)cn(Cc2ccccc2)c1=O" at or over 0.8 in terms of Growth Rate? label 1

Please tell me: is the molecule O=C1Nc2ccc(C(=O)c3ccco3)cc2C1=Cc1cc(Cl)c(O)c(Cl)c1 [GW406108X] at or over 0.8 in terms of Growth Rate? label 0

Please tell me: is the molecule CC(C)CNc1nc(N2CCN(CC3CCCOC3)CC2)ncc1C(=O)NCc1ccccc1 (configuration not stated) at or over 0.8 in terms of Growth Rate? label 0

Please tell me: is the molecule Cc1cc(C(C#N)c2ccc(Cl)cc2)c(Cl)cc1NC(=O)c1cc(I)cc(I)c1O (configuration not stated) at or over 0.8 in terms of Growth Rate? label 1

Please tell me: is the molecule "CCCCCCCC/C=C\CCCCCCCC(=O)NCc1ccc(O)c(OC)c1" at or over 0.8 in terms of Growth Rate? label 1

Please tell me: is the molecule "O=C(NCCN1CCOCC1)c1ccc2nn(CCOc3ccc(Cl)cc3)cc2c1" at or over 0.8 in terms of Growth Rate? label 1

Please tell me: is the molecule "Nc1ncnc2c1c(I)cn2[C@@H]1O[C@H](CO)[C@@H](O)[C@H]1O" at or over 0.8 in terms of Growth Rate? label 0

Please tell me: is the molecule Oc1cc2c(cc1O)CN(C(=S)NCCc1ccc(Cl)cc1)CCC2 [CAPSAZEPINE] at or over 0.8 in terms of Growth Rate? label 0

Please tell me: is the molecule "COc1ccc(-n2nc(C(F)(F)F)cc2-c2ccc(Cl)cc2)cc1" at or over 0.8 in terms of Growth Rate? label 1

* * *

Tested on: Fibroblast
Test: Incucyte cell viability with human fibroblast; also: unitless GR value; below 1 slowed growth and below 0 cell loss
Type: toxicity, cell-based
Settings: 6 h, 10 µM, compound concentration 10 uM, replicate number 1
Decision: Growth Rate >= -0.2 yields Y, all other cases yield N.

Please tell me: is the molecule "C[C@@H](Cn1c(=O)[nH]/c(=N\c2ccc(Oc3ccccn3)cc2)n(Cc2ccc(Cl)cc2)c1=O)C(=O)O" at or over -0.2 in terms of Growth Rate? Y

* * *

Measured Growth Rate by item
Tested on: HEK-293T
Experiment: Incucyte cell viability with HEK293T; also: unitless GR value; below 1 slowed growth and below 0 cell loss
Format: toxicity, cell-based
Settings: human, 0 h, 10 µM, compound concentration 10 uM, replicate number 1
Reply with the value as a number alone.

O=C(Nc1ccc(S(=O)(=O)Nc2nccs2)cc1)C(c1ccccc1)c1ccccc1    0.71

I'd like to know its Growth Rate. The compound in question is "O=C(Nc1cc(-c2cn[nH]c2)ccc1N1CCOCC1)c1ccc(-c2ccc3ncccc3c2)o1" 0.85

I'd like to know its Growth Rate. The compound in question is "CS(=O)(=O)CCNCc1ccc(-c2ccc3ncnc(Nc4ccc(OCc5cccc(F)c5)c(Cl)c4)c3c2)o1" 0.86

I'd like to know its Growth Rate. The compound in question is "Cc1nc2c(cc1F)c(-c1nnc3c(n1)NC(=O)C3(C)C)nn2Cc1cccc(F)c1F" 0.61

* * *

Test system: Fibroblast
Assay: Incucyte cell viability with human fibroblast; also: unitless GR value; below 1 slowed growth and below 0 cell loss
Type: toxicity, cell-based
Settings: 0 h, 10 µM, compound concentration 10 uM, replicate number 1
// assign T if Growth Rate falls strictly below 0.1, else F (ties count as F)

Answered examples (6):
O=C(CCCCCCc1ccccc1)c1ncc(-c2ccccn2)o1    T
Oc1cccc(Nc2ccnc3[nH]c4ccccc4c23)c1    F
COc1ccccc1[C@@H]1CNCCC12CCN(C(=O)[C@](OC)(c1ccccc1)C(F)(F)F)CC2    T
COc1cc(-c2cncc(-c3cnn(C4CCNCC4)c3)c2)cc(OC)c1OC    F
Cn1cc(-c2ccc(N(C(=O)NCc3ccccc3)[C@H]3CC[C@H](Nc4ccc(C#N)cn4)CC3)cc2)ccc1=O    F
N[C@@H]1CCCC[C@H]1Oc1ccc2ncc(-c3cc4ccccc4o3)n2n1    T

hey, is Growth Rate for O=C1CSC(=O)N1C(CCc1ccncc1)COc1ccc(-c2cccc([N+](=O)[O-])c2)cc1 (centres undefined) lower than 0.1 or not? F

hey, is Growth Rate for "CCc1cc2c(cc1-c1cccc(S(=O)(=O)F)c1)C(C)(C)c1[nH]c3cc(C#N)ccc3c1C2=O" lower than 0.1 or not? T

hey, is Growth Rate for "CCC(F)(F)c1cc(N2CCC(S(C)(=O)=O)CC2)nc2sc(C(N)=O)c(N)c12" lower than 0.1 or not? F

* * *

Test system: Fibroblast
Assay: Incucyte cell viability with human fibroblast; also: unitless GR value; below 1 slowed growth and below 0 cell loss
Format: toxicity, cell-based
Settings: 18 h, 10 µM, compound concentration 10 uM, replicate number 2
// assign Criterion met if Growth Rate falls strictly below 0.7, else Criterion not met (ties count as Criterion not met)

Cc1cc(CN(CC(=O)Nc2ccc(Cl)cc2Cl)C2CCCCC2)ccc1OCC(=O)O    Criterion not met
C=C[C@H]1C[N@@]2CC[C@H]1C[C@@H]2[C@@H](O)c1ccnc2ccc(OC)cc12 [QUINIDINE]    Criterion not met
O=C(Nc1cc(C(F)(F)F)ccc1N1CCCCC1)c1ccncc1    Criterion not met

hey, is Growth Rate for "COc1ccc(S(=O)(=O)N2CCOCC2)cc1Nc1ccc2c(n1)N(C1CCN(C)CC1)[C@H](C)C(=O)N2C" lower than 0.7 or not? Criterion met

hey, is Growth Rate for "CN1CCN([C@H]2CC[C@@H](n3cc(-c4ccc(Oc5ccccc5)cc4)c4c(N)ncnc43)CC2)CC1" lower than 0.7 or not? Criterion met

hey, is Growth Rate for C[C@H](CCC(=O)O)[C@H]1CC[C@H]2[C@@H]3CC[C@@H]4C[C@H](O)CC[C@]4(C)[C@H]3CC[C@]12C [LITHOCHOLIC ACID] lower than 0.7 or not? Criterion not met

hey, is Growth Rate for "CC(C)c1nc2c(c3c1[C@H](c1ccc(C(F)(F)F)cc1)OC31CCOCC1)[C@H](O)CC(C)(C)C2" lower than 0.7 or not? Criterion met

hey, is Growth Rate for CN(C)CCCn1cc(C2=C(c3c[nH]c4ccccc34)C(=O)NC2=O)c2ccccc21 [GF-109203] lower than 0.7 or not? Criterion met

hey, is Growth Rate for "O=C1COc2cc(C(=O)N(Cc3ccc(C(=O)Nc4ccncn4)cc3)C3CC3)ccc2N1" lower than 0.7 or not? Criterion not met

hey, is Growth Rate for "Cc1c(-c2cc(-c3ccccc3Cl)no2)cnn1C1CCNCC1.Cl" lower than 0.7 or not? Criterion met

The reported measurements were obtained from ChEMBL document CHEMBL5303304.
